- Test system: Streptococcus pyogenes
- protocol.details: Antibacterial activity against inducible macrolide-lincosamide-streptogramin B resistant Streptococcus pyogenes Finland 11 by broth microdilution method
- Format: functional
reported.property: MIC

| sample.smiles | system | reported.property | result |
| --- | --- | --- | --- |
| CC[C@H]1OC(=O)[C@H](C)[C@@H](O[C@H]2C[C@@](C)(OC)[C@@H](OC(=O)CCOCCNc3ccc4c(c3)c(=O)c(C(=O)OC(C)C)cn4C3CC3)[C@H](C)O2)[C@H](C)[C@@H](O[C@@H]2O[C@H](C)C[C@H](N(C)C)[C@H]2O)[C@](C)(O)C[C@@H](C)CN(C)[C@H](C)[C@@H](O)[C@]1(C)O | Streptococcus pyogenes | MIC | ≤ 0.125 µg/mL |
| CC[C@H]1OC(=O)[C@H](C)[C@@H](O[C@H]2C[C@@](C)(OC)[C@@H](OC(=O)CCOCCNc3cc4c(=O)c(C(=O)O)cn(C5CC5)c4cc3Cl)[C@H](C)O2)[C@H](C)[C@@H](O[C@@H]2O[C@H](C)C[C@H](N(C)C)[C@H]2O)[C@](C)(O)C[C@@H](C)CN(C)[C@H](C)[C@@H](O)[C@]1(C)O | Streptococcus pyogenes | MIC | ≤ 0.125 µg/mL |
| CC[C@H]1OC(=O)[C@H](C)[C@@H](O[C@H]2C[C@@](C)(OC)[C@@H](OC(=O)CCOCCOc3ccc4c(c3)c(=O)c(C(=O)O)cn4C3CC3)[C@H](C)O2)[C@H](C)[C@@H](O[C@@H]2O[C@H](C)C[C@H](N(C)C)[C@H]2O)[C@](C)(O)C[C@@H](C)CN(C)[C@H](C)[C@@H](O)[C@]1(C)O | Streptococcus pyogenes | MIC | ≤ 0.125 µg/mL |
